Values were extracted from paper PMC9950733.

- TARGET OR TEST SYSTEM: T1, recombinant Bacteroides fragilis toxin 1 (BFT1), full length without signal peptide (Bacteroides fragilis (enterotoxigenic), …)
- T1 construct: B. fragilis toxin subtype 1 (BFT1, fragilysin), zinc-dependent metallopeptidase of enterotoxigenic Bacteroides fragilis; prodomain plus catalytic domain, without the signal peptide; also called B. fragilis toxin; source: E. coli Origami-2 (DE3), purified (Ni-NTA, SEC on Superdex 75)
- T1 chain: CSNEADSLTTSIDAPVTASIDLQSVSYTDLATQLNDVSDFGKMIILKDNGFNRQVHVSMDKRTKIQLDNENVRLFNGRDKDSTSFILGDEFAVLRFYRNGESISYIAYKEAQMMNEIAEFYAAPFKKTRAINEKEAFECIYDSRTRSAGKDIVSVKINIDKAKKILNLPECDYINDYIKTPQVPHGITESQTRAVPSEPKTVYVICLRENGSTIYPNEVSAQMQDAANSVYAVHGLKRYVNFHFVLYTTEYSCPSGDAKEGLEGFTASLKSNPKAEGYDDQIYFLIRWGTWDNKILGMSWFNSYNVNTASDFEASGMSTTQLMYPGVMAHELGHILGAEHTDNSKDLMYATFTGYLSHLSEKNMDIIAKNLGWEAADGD
- TEST: ITC; Microcal ITC 200, 25°C; 20 mM Tris pH 8.0, 150 mM NaCl, 5% glycerol; nanobody (20 μM) injected into BFT solution (200 μM); one binding site mode
- SETTINGS: both partners purified
The label depends only on dH: label 1 if it is at least -10 kcal/mol, label 0 if it is smaller.

binder="Nb2.37 (VHH, from round 2 of bio-panning; source: E. coli WK6 periplasm, purified (Ni-NTA, SEC on Superdex 75)) VHH: QVQLQESGGGLVQPGGSLRLSCVVSRRTFDAWAMGWFRQAPGQERDFVASVNWSGDSTYYADSVKGRFTISRDNAKNTVYLQMNSLKPEDTAVYYCAALAGSYHSRTPLDDYWGQGTQVTVSS" category="label 0"
binder="Nb2.41 (VHH, from round 2 of bio-panning; source: E. coli WK6 periplasm, purified (Ni-NTA, SEC on Superdex 75)) VHH: QVQLQESGGGLVQAGGSLRLSCASSGRTFDAWAMGWFRQAPGKEREVVATISWNGDRTYYGDSVKGRFTISRDNAKSTVALQMNNLKPEDTGVYYCAQMEGTYYSGRPSYWGQGTQVTVSS" category="label 0"
binder="Nb2.40 (VHH, from round 2 of bio-panning; source: E. coli WK6 periplasm, purified (Ni-NTA, SEC on Superdex 75)) VHH: QVQLQESGGGLVQAGGSLRLSCAYFGRTFSAWAMGWFRQAPGKERESVATINWSGERTSYADSVKGRFTISRDNAKNTVYLQMNSLKPEDTAVYYCAAMEGTYYSGKPGTWGQGTQVTVSS" category="label 0"

// query Does Nb3.27 (VHH, from round 3 of bio-panning; CDR1 Gly26-Ala33, CDR2 Ile51-Thr58, CDR3 Ala97-Asn110; source: E. coli WK6 periplasm, purified (Ni-NTA, SEC on Superdex 75)) VHH: QVQLQESGGGLVQAGGSLRLSCTYSGQTFSAWAMGWFRQAPGKERETVATINWNGERTQYADAVKGRFTISRDNAKDTVYLEMNSLKPEDTAVYYCASMMGTYYSGSPKNWGQGTQVTVSS have a reported dH of at least -10 kcal/mol?
// result label 1

// query Repeat with Nb2.82 (VHH, from round 2 of bio-panning; CDR1 Gly26-Thr33, CDR2 Ile51-Thr58, CDR3 Ala97-Asp111; source: E. coli WK6 periplasm, purified (Ni-NTA, SEC on Superdex 75)) VHH: QVQLQESGGGLVQPGGSLRLSCAASGFTFSRYTMTWVRQAPGKGLEWVSNINSDGGRTYYADSVKGRFTISRDNTKNTLYLQMNSLKPEDTAVYYCAIPKRTYVPPSQFDDRGQGTQVTVSS
// result label 0

// query Repeat with Nb2.14 (VHH, from round 2 of bio-panning; source: E. coli WK6 periplasm, purified (Ni-NTA, SEC on Superdex 75)) VHH: QVQLQESGGGFVQTGGSLRLSCERSGTTFDSFAMGWFRQSPGKEREKVATINWSGESTSYTDSVKGRFTISRDNAKNTVYLQMNNLQPEDTAIYYCAQIAGTHYSGTPQYWGQGTQVTVSS
// result label 0

// query Repeat with Nb3.4 (VHH, from round 3 of bio-panning; source: E. coli WK6 periplasm, purified (Ni-NTA, SEC on Superdex 75)) VHH: QVQLQESGGGLVQPGGSLRLSCAASGFTFSSAAMNWVRQAPGKGPEWVSGINSSGTTTKYADSVKGRFTISRDNAKNTLYLQMNSLKPEDTAIYYCARKPLWSVGYDYWGQGTQVTVSS
// result label 1

// query Repeat with Nb3.17 (VHH, from round 3 of bio-panning; source: E. coli WK6 periplasm, purified (Ni-NTA, SEC on Superdex 75)) VHH: QVQLQESGGGLVQAGDSLRLSCAASGGSFDMFAMGWFRQAPGKERERVATISWSGDRTVYADSVKGRFTISRDNTKKMLYLQMNNLKPEDTAVYYCAQIEGTHYSGSPSDHWGQGTQVTVSS
// result label 0

// query Repeat with Nb2.29 (VHH, from round 2 of bio-panning; source: E. coli WK6 periplasm, purified (Ni-NTA, SEC on Superdex 75)) VHH: QVQLQESGGGLVQAGGSLRLSCVASGIIDNINTFGWYRQAPGKQRELVANISRWGNTNYADSSRDGFFISSEDANTTMYLLMMNLKPDDDAVYYCRAEIIGYDNGAHDYWGRGTRITVSS
// result label 0

// query Repeat with Nb3.40 (VHH, from round 3 of bio-panning; source: E. coli WK6 periplasm, purified (Ni-NTA, SEC on Superdex 75)) VHH: QVQLQESGGGFVQTGGSLRLSCERSGTTFDSFAMGWFRQSPGKEREKVATINWSGESTSYTDSVKGRFTISRDNAKNTVYLQMNNLQPEDTAIYYCAQIAGTYYSGTPQYWGQGTQVTVSS
// result label 0
